B1: TPR 5TU (parent)
chain: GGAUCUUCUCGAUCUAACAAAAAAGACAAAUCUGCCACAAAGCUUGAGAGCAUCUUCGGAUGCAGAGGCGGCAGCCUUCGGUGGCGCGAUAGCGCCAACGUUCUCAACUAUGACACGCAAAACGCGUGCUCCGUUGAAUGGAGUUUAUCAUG

- Variants of: B1
- assay_text: polymerase ribozyme fitness, log enrichment relative to wild type (log ratio); higher = more active; in vitro selection for triplet polymerase activity
Variants at the floor of the assay were thinned out.
Entries annotated with measured polymerase ribozyme fitness (log ratio)
Just the number, please.

Query block: Return reported polymerase ribozyme fitness (log ratio). Input variant: U6G A120C G136C
Result block: -3.69

Query block: Name the recorded polymerase ribozyme fitness (log ratio) of the variant listed here: C75U G141C
Result block: -1.98

Query block: Give the reported polymerase ribozyme fitness (log ratio) for this variant. C96G U130C
Result block: 0.873

Query block: Respond only with polymerase ribozyme fitness (log ratio) recorded for C14U C35G C75U C76G C95U
Result block: -3.81

Query block: Provide only the value of recorded polymerase ribozyme fitness (log ratio) for C18G C116U
Result block: -0.663

Query block: Identify the reported polymerase ribozyme fitness (log ratio) for the following entry. C105U G140A
Result block: -2.92

Query block: Complete the entry with polymerase ribozyme fitness (log ratio) for C54A C57U C95U
Result block: -1.9

Where do the numbers come from? From the RNAGym collection of RNA variant scans (doi:10.1073/pnas.2313332121).
